# Tested on: CYP
# ASSAY INFO: Overall oxidative
# Assay type: in vitro ADME
# PARTICULARS: human, human liver microsomes (model input, not an incubation)
MEASUREMENT TYPE: microsomal CLint (µL/min/mg)
Give bare numbers, in µL/min/mg.

input: Would you kindly share the measured microsomal CLint for CCOc1ccc(Cc2cc([C@@H]3O[C@H](CO)[C@@H](O)[C@H](O)[C@H]3O)ccc2Cl)cc1 [Dapagliflozin, dapagliflozin] ?
output: 4
